Listing of recorded Log 1/C by entry.
EXPERIMENTAL_SYSTEM: Sodium-dependent dopamine transporter (Homo sapiens) (UniProt Q01959)
Sequence (Q01959 whole entry): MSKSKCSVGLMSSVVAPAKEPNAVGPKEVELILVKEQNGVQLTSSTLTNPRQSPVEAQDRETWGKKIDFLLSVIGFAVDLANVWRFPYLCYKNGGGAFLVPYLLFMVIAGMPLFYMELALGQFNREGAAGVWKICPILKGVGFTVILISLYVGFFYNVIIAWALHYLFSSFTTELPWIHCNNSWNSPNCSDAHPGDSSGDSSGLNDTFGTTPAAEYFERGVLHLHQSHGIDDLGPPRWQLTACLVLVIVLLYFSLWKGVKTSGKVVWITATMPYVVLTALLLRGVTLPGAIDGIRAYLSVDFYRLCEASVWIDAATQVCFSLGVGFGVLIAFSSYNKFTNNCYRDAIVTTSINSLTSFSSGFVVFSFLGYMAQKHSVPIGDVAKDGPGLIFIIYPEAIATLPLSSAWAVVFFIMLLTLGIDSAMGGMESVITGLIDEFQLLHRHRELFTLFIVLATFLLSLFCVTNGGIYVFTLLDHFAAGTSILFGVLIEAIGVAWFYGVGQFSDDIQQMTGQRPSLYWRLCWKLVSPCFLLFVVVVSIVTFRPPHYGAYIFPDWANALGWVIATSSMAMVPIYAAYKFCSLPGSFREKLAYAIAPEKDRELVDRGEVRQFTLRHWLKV
METHOD: Inhibition of [3H]dopamine uptake in HEK293 cells expressing recombinant Dopamine transporter
Type: cell-based
Hey, just send me the number, nothing else.

Please report the measured Log 1/C for Cc1ccc(C(OCCN2CCN(C/C=C/c3ccccc3)CC2)c2ccccc2)cc1 (centres undefined)
6.78

Please report the measured Log 1/C for C(=C\c1ccccc1)/CN1CCN(CCN(Cc2ccccc2)c2ccccn2)CC1
6.1

Please report the measured Log 1/C for Fc1ccc(C(OCCN2CCN(C/C=C/c3ccc(Cl)cc3)CC2)c2ccc(F)cc2)cc1
6.66

New cases:
Please report the measured Log 1/C for Fc1ccc(C(OCCN2CCN(C/C=C/c3ccccc3)CC2)c2ccc(Cl)cc2)cc1 (centres undefined)
6.7

Please report the measured Log 1/C for Fc1ccc(CCCN2CCN(CCOC(c3ccccc3)c3ccccc3)CC2)cc1
6.41

Please report the measured Log 1/C for Clc1ccc(C(OCCN2CCN(C/C=C/c3ccccc3)CC2)c2ccc(Cl)cc2)cc1
6.62

Please report the measured Log 1/C for Cc1ccc(/C=C/C(=O)N2CCN(CCOC(c3ccc(F)cc3)c3ccc(F)cc3)CC2)cc1
5.21

Please report the measured Log 1/C for COc1ccc(CN(CCCN2CCN(CCCc3ccccc3)CC2)c2ccccn2)cc1
7.08

Please report the measured Log 1/C for O=C(/C=C/c1ccc(Cl)cc1)N1CCN(CCOC(c2ccc(F)cc2)c2ccc(F)cc2)CC1
5.44

Please report the measured Log 1/C for O=C(CN1CCN(CCCc2ccccc2)CC1)N(Cc1ccccc1)c1ccccc1
6.28

Please report the measured Log 1/C for Fc1ccc(/C=C/CN2CCN(CCOC(c3ccccc3)c3ccccc3)CC2)cc1
7.26

Please report the measured Log 1/C for COc1ccc(OC)c(/C=C/CN2CCN(CCOC(c3ccc(F)cc3)c3ccc(F)cc3)CC2)c1
6.43

Please report the measured Log 1/C for Fc1ccc(CCCN2CCN(CCOC(c3ccccc3)c3ccc(F)cc3)CC2)cc1 (centres undefined)
7.49

Please report the measured Log 1/C for C(=C\c1ccccc1)/CN1CCN(CCN(Cc2ccccc2)c2ccccc2)CC1
6.74
